System: NCI-H322M lung
method description: NCI-60 one-dose screen, 48 h
study conditions: 10 µM unless noted
The panel holds about 83,000 compounds, 20% with a hit somewhere; the sample as a whole holds those more often. Activity calls are given as the source filed them. Rule for the calls: active = growth percent below 10; inactive = the rest.
Field 'call' accepts active, inactive

Entry N#Cc1c2ccccc2c2n1-c1ccccc1OC(c1ccccc1)C2=O (stereo not given) : call = ?
inactive

Follow-up item: COc1cc(/C=C/C(=O)c2ccc(F)cc2)ccc1OCCCCCOc1cc2c(cc1OC)C(=O)N1CCCC1C=N2 (stereo not given)
active

Could you do the same for CN(C)c1nc(-c2ccco2)n2nc(-c3ccco3)cc2n1 , please?
inactive

Try this molecule next: ClC1=C(Cl)C(Cl)=C(Cl)C1=C/C=C/c1ccccc1
active

Further, for COc1cc(C2CC(=O)Nc3c2cc(Br)c2ccccc32)cc(Br)c1OC (stereo not given) ?
inactive
